# systemName: BCL-XL (Homo sapiens, UniProt Q07817)
# Construct: endogenous in cells; host or cells: MOLT-4
# Sequence (Q07817 whole entry): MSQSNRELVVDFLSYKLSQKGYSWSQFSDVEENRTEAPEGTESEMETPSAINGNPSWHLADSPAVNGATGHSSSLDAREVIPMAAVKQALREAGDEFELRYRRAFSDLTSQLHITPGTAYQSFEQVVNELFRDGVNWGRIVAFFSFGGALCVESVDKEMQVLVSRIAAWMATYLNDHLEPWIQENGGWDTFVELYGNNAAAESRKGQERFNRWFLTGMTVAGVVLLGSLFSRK
# assayMethodText: Bcl-xL ELISA degradation in MOLT-4 cells, 6 h
# Type: cell-based

>  <molecule>
C#Cc1ccc([C@H](COC)NC(=O)[C@@H]2C[C@@H](O)CN2C(=O)[C@@H](NC(=O)CCCCCS(=O)(=O)NC(=O)c2nc(N(C)c3cc(C)c(Nc4nc5ccccc5s4)nn3)ccc2-c2cnn(CC34CC5CC(CC(C5)C3)C4)c2C)C(C)(C)C)cc1

>  <Dmax>
> 75%

$$$$
>  <molecule>
Cc1ncsc1-c1ccc([C@H](C)NC(=O)[C@@H]2C[C@@H](O)CN2C(=O)[C@@H](NC(=O)C2CCN(c3ccc(S(=O)(=O)NC(=O)c4nc(N5CCc6cccc(C(=O)Nc7nc8ccccc8s7)c6C5)ccc4-c4cccc(OC(C)C)c4C)cc3)CC2)C(C)(C)C)cc1

>  <Dmax>
< 50%

$$$$
>  <molecule>
Cc1ncsc1-c1ccc([C@H](C)NC(=O)[C@@H]2C[C@@H](O)CN2C(=O)[C@@H](NC(=O)C2CCN(c3ccc(S(=O)(=O)NC(=O)c4nc(N5CCc6cccc(C(=O)Nc7nc8ccccc8s7)c6C5)ccc4-c4cnn(CC5CCCCC5)c4C)cc3CO)CC2)C(C)(C)C)cc1

>  <Dmax>
50 to 75%

$$$$
>  <molecule>
Cc1ncsc1-c1ccc(CNC(=O)[C@@H]2C[C@@H](O)CN2C(=O)[C@@H](NC(=O)CCc2ccc(S(=O)(=O)NC(=O)c3nc(N4CCc5cccc(C(=O)Nc6nc7ccccc7s6)c5C4)ccc3-c3cnn(CC4CCCCC4)c3C)c(F)c2)C(C)(C)C)cc1

>  <Dmax>
> 75%

$$$$
>  <molecule>
CCN1CCN(Cc2cc(S(=O)(=O)NC(=O)c3nc(N4CCc5cccc(C(=O)Nc6nc7ccccc7s6)c5C4)ccc3-c3cnn(CC4CCCCC4)c3C)ccc2N2CCC(C(=O)N[C@H](C(=O)N3C[C@H](O)C[C@H]3C(=O)NCc3ccc(-c4scnc4C)cc3)C(C)(C)C)CC2)CC1

>  <Dmax>
> 75%

$$$$
>  <molecule>
C#Cc1ccc(CNC(=O)[C@@H]2C[C@@H](O)CN2C(=O)[C@@H](NC(=O)C2CN(c3ccc(S(=O)(=O)NC(=O)c4nc(N(C)c5cc(C)c(Nc6nc7ccccc7s6)nn5)ccc4-c4cnn(CC56CC7CC(CC(C7)C5)C6)c4C)cc3)C2)C(C)(C)C)cc1

>  <Dmax>
> 75%

$$$$
>  <molecule>
Cc1ncsc1-c1ccc([C@H](C)NC(=O)[C@@H]2C[C@@H](O)CN2C(=O)[C@@H](NC(=O)C2CCN(c3ccc(S(=O)(=O)NC(=O)c4nc(N5CCc6cccc(C(=O)Nc7nc8cccnc8s7)c6C5)ccc4-c4cnn(CC5CCCCC5)c4C)cc3)CC2)C(C)(C)C)cc1

>  <Dmax>
> 75%

$$$$
>  <molecule>
Cc1ncsc1-c1ccc([C@H](C)NC(=O)[C@@H]2C[C@@H](O)CN2C(=O)[C@@H](NC(=O)C2CCN(c3ccc(S(=O)(=O)NC(=O)c4nc(N5CCc6cccc(C(=O)Nc7nc8ccccc8s7)c6C5)ccc4-c4cccc(N(C)C(C)C)c4C)cc3)CC2)C(C)(C)C)cc1

>  <Dmax>
50 to 75%

$$$$
>  <molecule>
Cc1ncsc1-c1ccc([C@H](C)NC(=O)[C@@H]2C[C@@H](O)CN2C(=O)[C@@H](NC(=O)N2CC(Cc3ccc(S(=O)(=O)NC(=O)c4nc(N5CCc6cccc(C(=O)Nc7nc8ccccc8s7)c6C5)ccc4-c4cnn(CC5CCCCC5)c4C)cc3)C2)C(C)(C)C)cc1

>  <Dmax>
> 75%

$$$$
>  <molecule>
Cc1ncsc1-c1ccc([C@H](C)NC(=O)[C@@H]2C[C@@H](O)CN2C(=O)[C@@H](NC(=O)CCS(=O)(=O)NC(=O)c2nc(N3CCc4cccc(C(=O)Nc5nc6ccccc6s5)c4C3)ccc2-c2cnn(CC3CCCCC3)c2C)C(C)(C)C)cc1

>  <Dmax>
> 75%

$$$$
>  <molecule>
Cc1ncsc1-c1ccc([C@H](C)NC(=O)[C@@H]2C[C@@H](O)CN2C(=O)[C@@H](NC(=O)CCCCCCNC(=O)c2nc(N3CCc4cccc(C(=O)Nc5nc6ccccc6s5)c4C3)ccc2-c2cnn(CC3CCCCC3)c2C)C(C)(C)C)cc1

>  <Dmax>
50 to 75%

$$$$
>  <molecule>
Cc1ncsc1-c1ccc([C@H](C)NC(=O)[C@@H]2C[C@@H](O)CN2C(=O)[C@@H](NC(=O)C2CC3CCC(C2)N3c2ccc(S(=O)(=O)NC(=O)c3nc(N4CCc5cccc(C(=O)Nc6nc7ccccc7s6)c5C4)ccc3-c3cnn(CC4CCCCC4)c3C)cc2)C(C)(C)C)cc1 (stereo partly drawn)

>  <Dmax>
> 75%

$$$$
>  <molecule>
Cc1cc(N(C)c2ccc(-c3cnn(CC4CCCCC4)c3C)c(C(=O)NS(=O)(=O)c3ccc(N4CCC(C(=O)N[C@H](C(=O)N5C[C@H](O)C[C@H]5C(=O)N[C@@H](C)c5ccc(-c6scnc6C)cc5)C(C)(C)C)CC4)cc3)n2)nnc1Nc1nc2ccccc2s1

>  <Dmax>
> 75%

$$$$
>  <molecule>
Cc1ncsc1-c1ccc(CNC(=O)[C@@H]2C[C@@H](O)CN2C(=O)[C@@H](NC(=O)C2(F)CC2)C(C)(C)C)c(OC2CCN(CC[C@H](CSc3ccccc3)Nc3ccc(S(=O)(=O)NC(=O)c4ccc(N5CCN(CC6=C(c7ccc(Cl)cc7)CCC(C)(C)C6)CC5)cc4)cc3S(=O)(=O)C(F)(F)F)CC2)c1

>  <Dmax>
< 50%

$$$$
>  <molecule>
Cc1c(-c2ccc(N3CCc4cccc(C(=O)Nc5nc6ccccc6s5)c4C3)nc2C(=O)NS(=O)(=O)CCCCCc2ccc3c(c2)n(C)c(=O)n3C2CCC(=O)NC2=O)cnn1CC1CCCCC1 (stereo not drawn)

>  <Dmax>
> 75%

$$$$

----------
Below is a list of entries, each paired with its recorded DC50 value.
# systemName: BCL-XL (Homo sapiens, UniProt Q07817)
# Construct: endogenous in cells; host or cells: MOLT-4
# assayMethodText: Bcl-xL ELISA degradation in MOLT-4 cells, 6 h
# Type: cell-based
# appliedConditions: read-out: Bcl-xL ELISA in MOLT-4 degradation 6 h: Mean external-Abs DC50

>  <compound>
Cc1ncsc1-c1ccc([C@H](C)NC(=O)[C@@H]2C[C@@H](O)CN2C(=O)[C@@H](NC(=O)CCCCc2nc(C3CCCN(C(=O)c4nc(N5CCc6cccc(C(=O)Nc7nc8ccccc8s7)c6C5)ccc4-c4cnn(CC5CCCCC5)c4C)C3)no2)C(C)(C)C)cc1 (stereo partly shown)

>  <DC50>
10 to 100 nM

$$$$
>  <compound>
Cc1ncsc1-c1ccc(CNC(=O)[C@@H]2C[C@@H](O)CN2C(=O)[C@@H](NC(=O)C2(F)CC2)C(C)(C)C)c(OCCC2CCN(CC[C@H](CSc3ccccc3)Nc3ccc(S(=O)(=O)NC(=O)c4ccc(N5CCN(CC6=C(c7ccc(Cl)cc7)CCC(C)(C)C6)CC5)cc4)cc3S(=O)(=O)C(F)(F)F)CC2)c1

>  <DC50>
100 to 500 nM

$$$$
>  <compound>
Cc1ncsc1-c1ccc([C@H](C)NC(=O)[C@@H]2C[C@@H](O)CN2C(=O)[C@@H](NC(=O)N2CCC(N3CCC(S(=O)(=O)NC(=O)c4nc(N5CCc6cccc(C(=O)Nc7nc8ccccc8s7)c6C5)ccc4-c4cnn(CC5CCCCC5)c4C)CC3)CC2)C(C)(C)C)cc1

>  <DC50>
100 to 500 nM

$$$$
>  <compound>
Cc1ncsc1-c1ccc([C@H](C)NC(=O)[C@@H]2C[C@@H](OC(=O)CCP(=O)(O)O)CN2C(=O)[C@@H](NC(=O)C2CCN(c3ccc(S(=O)(=O)NC(=O)c4nc(N5CCc6cccc(C(=O)Nc7nc8ccccc8s7)c6C5)ccc4-c4cnn(CC5CCCCC5)c4C)cc3)CC2)C(C)(C)C)cc1

>  <DC50>
10 to 100 nM

$$$$
>  <compound>
C#Cc1ccc([C@H](CO)NC(=O)[C@@H]2C[C@@H](O)CN2C(=O)[C@@H](NC(=O)CCc2ccc(S(=O)(=O)NC(=O)c3nc(N4CCc5cccc(C(=O)Nc6nc7ccccc7s6)c5C4)ccc3-c3cnn(CC4CCCCC4)c3C)cc2)C(C)(C)C)cc1

>  <DC50>
10 to 100 nM

$$$$
>  <compound>
Cc1ncsc1-c1ccc([C@H](C)NC(=O)[C@@H]2C[C@@H](O)CN2C(=O)[C@@H](NC(=O)[C@H]2CC[C@H](N3CCC(S(=O)(=O)NC(=O)c4nc(N5CCc6cccc(C(=O)Nc7nc8ccccc8s7)c6C5)ccc4-c4cnn(CC5CCCCC5)c4C)CC3)CC2)C(C)(C)C)cc1

>  <DC50>
100 to 500 nM

$$$$
>  <compound>
Cc1ncsc1-c1ccc([C@H](C)NC(=O)[C@@H]2C[C@@H](O)CN2C(=O)[C@@H](NC(=O)CCCCCCS(=O)(=O)NC(=O)c2nc(N3CCc4cccc(C(=O)Nc5nc6ccccc6s5)c4C3)ccc2-c2cnn(CC3CCCCC3)c2C)C(C)(C)C)cc1

>  <DC50>
10 to 100 nM

$$$$
